// provenance: patent US10689354B2

targetSystem: androgen receptor (AR-LBD) (Rattus norvegicus)
Construct: 5 μL of 2×AR-LBD/Fluoromone AL Red Complex contained in the kit; purchased Invitrogen
Sequence (P15207 651-882 limits assumed): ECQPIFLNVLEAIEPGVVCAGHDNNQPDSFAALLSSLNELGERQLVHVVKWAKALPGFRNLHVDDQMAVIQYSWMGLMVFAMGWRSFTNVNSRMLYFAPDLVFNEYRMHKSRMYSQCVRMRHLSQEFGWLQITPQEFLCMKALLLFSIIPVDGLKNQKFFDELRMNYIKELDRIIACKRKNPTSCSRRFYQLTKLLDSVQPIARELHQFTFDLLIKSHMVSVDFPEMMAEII
procedureSummary: Evaluation of androgen receptor affinity (PolarScreen Androgen Receptor Competitor Assay Kit, Red; fluorescence polarization)
setupConditions: 22° C. for 5 hours, relative to binding rate of 1 μM DHT, read-out: AR affinity (pEC50) (converted)
metric: EC50 (nM)
Your answer should be a plain number; it is taken to be in nM.

Give reported EC50 value for COc1cccc(CN(c2ccc(C#N)cc2)c2nc(C(=O)NS(C)(=O)=O)c(C)s2)n1 [Compound 491] 100

Give reported EC50 value for Cc1sc(N(Cc2cccc(OC(C)C)c2)c2ccc(C#N)cc2)nc1C(=O)NS(C)(=O)=O [Compound 585] 79.4

Give reported EC50 value for Cc1sc(N(Cc2ccc3nc[nH]c3c2)c2ccc(C#N)cc2)nc1C(=O)NS(C)(=O)=O [Compound 389] 1580

Give reported EC50 value for Cc1sc(N(Cc2ccccc2)c2ccc(C#N)cc2)nc1C(=O)NS(=O)(=O)C(F)(F)F [Compound 364] 31.6

Give reported EC50 value for Cc1sc(N(Cc2ccc(C(F)(F)F)c(F)c2)c2ccc(C#N)cc2)nc1C(=O)NS(C)(=O)=O [Example 167] 25.1

Give reported EC50 value for Cc1sc(N(Cc2ccc(Br)nc2)c2ccc(C#N)cc2)nc1C(=O)NS(C)(=O)=O [Compound 496] 126

Give reported EC50 value for Cc1sc(N(Cc2ccc(OC(F)F)c(F)c2)c2ccc(C#N)cc2)nc1C(=O)NS(C)(=O)=O [Example 172] 31.6

Give reported EC50 value for CS(=O)(=O)NC(=O)c1nc(N(Cc2ccc(F)cc2)c2ccc(C#N)cc2)sc1Br [Example 244] 63.1
